This collection of values is drawn from PubChem BioAssay (NCI).

Tested on: SNB-75 CNS
method_notes: NCI-60 one-dose screen, 48 h
settings: 10 µM unless noted
Compounds without any hit were thinned out: in the full panel of roughly 83,000, 20% have a hit. Activity calls are given as the source filed them. How the source made its calls: active means growth percent below 10; inactive means the rest.
Bench note: report the call from active, inactive

What was the test verdict on CCOC(=O)NNc1cccc(Cl)c1 ?
inactive

NC(N)=N/N=C\c1cccc(OCc2ccccc2)c1 ?
inactive

CCCCn1cnc(-c2cc(-c3ccccc3)cc(C(F)(F)F)c2)n1 ?
inactive

Oc1c(-c2cc(C(F)(F)F)[nH]n2)cc(Cl)c(OCc2ccc(Cl)cc2)c1-c1ccc(Cl)c(C(F)(F)F)c1 ?
active

COc1ccc(C(=O)C(CN(C)C)c2ccccc2)cc1 (stereo unspecified) ?
inactive

O=C(OCc1ccc2c(Br)cc(Br)c(O)c2n1)c1cc2ccccc2[nH]1 ?
active

###

Assign growth to each entry below.
System: MALME-3M melanoma
method_notes: NCI-60 one-dose screen, 48 h (100 = growth as untreated, 0 = no growth, -100 = all killed)
settings: 10 µM unless noted
This is part of a sample that, as a whole, favours compounds with a hit. Of some 83,000 tested, about 20% had one in any assay.
# value in %; strip the unit string

Hi! What's the reported growth for Cc1ccc(N2C3c4ccccc4N(S(=O)(=O)c4ccc(C)cc4)C2c2ccccc2N3S(=O)(=O)c2ccc(C)cc2)cc1 on MALME-3M melanoma?
97.9

O=c1c2sc3ccccc3c2nnn1-c1ccc(F)c(Cl)c1 ?
58

Clc1cc(Br)ccc1-c1ccc(CNCC2CCNCC2)o1 ?
-4.35

Nc1ccc(C(OC(=O)c2cc3ccccc3c(Cc3c(O)c(C(=O)OC(c4ccc(N)cc4)(c4ccc(N)cc4)c4ccc(N)cc4)cc4ccccc34)c2O)(c2ccc(N)cc2)c2ccc(N)cc2)cc1 ?
5.78

CCOC(=O)C(Nc1ccccc1)C(=O)OCC ?
93.2

O=C1Cc2c([nH]c3ccc([N+](=O)[O-])cc23)-c2ccccc2N1 ?
8.75

CNC(=O)c1cc(Oc2ccc(NC(=O)c3nc(S(C)(=O)=O)sc3-c3ccc(F)cc3)cc2)ccn1 ?
94.5

COC1=CC(c2ccc[nH]2)=N/C1=C\c1[nH]c(C)c(C(=O)CCCCCCCCC(=O)O[C@H]2CC[C@H]3C4CCc5cc(O)ccc5C4CC[C@]23C)c1C (stereo partly drawn) ?
40.5

###

Tested on: BT-549 breast
method_notes: NCI-60 one-dose screen, 48 h (100 = growth as untreated, 0 = no growth, -100 = all killed)
settings: 10 µM unless noted
Compounds without any hit were thinned out: in the full panel of roughly 83,000, 20% have a hit. Calls of active or inactive are those of the source. Rule for the calls: active = growth percent below 10; inactive = the rest.
parameter: growth

Query (compound): Oc1[nH]c2ccccc2c1/C=c1/ccc2c(c1)N=C(c1ccc(C(F)(F)F)cc1)N=2 ; field requested: growth
43.3% (inactive)

CC(=O)c1cccc(Nc2ncnc3ccc(NC(=O)c4ccco4)cc23)c1 ?
96.5% (inactive)

O=C1C=CC(=O)N1CO ?
116% (inactive)

Cc1cc(-c2nnc(/C=C/c3ccc4c(c3)OCO4)o2)n[nH]1 ?
35.1% (inactive)

CN1CCN(Cc2ccc(NC(=O)c3ccc(C#N)c(C#Cc4cnc(N)c5ncccc45)c3)cc2C(F)(F)F)CC1 ?
103% (inactive)

C=CCn1c(SCC(=O)Nc2ccc(C(=O)/C=C/c3ccc(Cl)cc3)cc2)nnc1-c1ccc(Cl)cc1 ?
82.5% (inactive)

CN(C)CCOc1nc2c3ccncc3cc(-c3cccc(Cl)c3)c2c2cnccc12 ?
52.6% (inactive)

O=C1C(Cl)=C(N/N=c2/[nH][nH]/c(=N/NC3=C(Cl)C(=O)c4ccccc4C3=O)c3ccccc23)C(=O)c2ccccc21 ?
83.1% (inactive)

CCNC(=S)N(Cc1ccccc1)Cc1ccccc1 ?
119% (inactive)

O=C(CI)NCCNc1cccc2c(S(=O)(=O)O)cccc12 ?
96.8% (inactive)

COc1cc(/C=C/C(=O)c2c(C)nc3ccccc3c2C)ccc1OCCCOc1cc2c(cc1OC)C(=O)N1CCC[C@H]1C=N2 ?
-94.2% (active)

Fc1ccc2nc(-c3ccc(-c4noc(-c5ccc(Cl)cc5)n4)cc3)[nH]c2c1 ?
93.9% (inactive)

O=[N+]([O-])c1cccc(N=C(Nc2cccc([N+](=O)[O-])c2)c2ccccc2)c1 ?
82% (inactive)

Cc1cc2nc3c(=O)[nH]c(=O)nc-3n(CC=O)c2cc1C ?
113% (inactive)

NC(N)=N/N=C\c1ccc(OCc2ccccc2)cc1 ?
89.3% (inactive)

COc1ccc2[nH]cc(/C=C3\C(=O)Nc4ccccc43)c2c1 ?
48.5% (inactive)

CC1=NOCC(=O)N1 ?
104% (inactive)

Cc1nc2c(-c3cnc(N)nc3)nc(N3CCOCC3)nc2n1C(C)C ?
-3.32% (active)

SCc1ccc(CS)cc1 ?
92.3% (inactive)

C=CC[C@]1(O)CC[C@H]2[C@@H]3CCc4cc(O)ccc4[C@H]3CC[C@@]21C ?
93.6% (inactive)

c1ccc(C(Nc2ccccn2)(c2ccccc2)c2ccccc2)cc1 ?
99.2% (inactive)

Cc1ccc(C2CC(c3cccs3)=NN2c2ccc(S(N)(=O)=O)cc2)s1 (stereo unspecified) ?
102% (inactive)

COc1ccc(NC(=O)/C=C/c2ccc(NC(=O)N3CCCC3)cc2)cn1 ?
97.4% (inactive)

CCn1c(CN2CCN(Cc3ccccc3)CC2)nc2cc(NC(=O)c3cccs3)ccc21 ?
-30.9% (active)

COc1ccc2c(c1)CCCC21C(=O)Nc2ccccc21 (stereo unspecified) ?
101% (inactive)

C/C=C(\C)C(C(=O)NC1CCCCC1)N(C(=O)C1CCc2cc(F)ccc2O1)c1ccc([N+](=O)[O-])cc1 (stereo unspecified) ?
90.1% (inactive)

Cc1ccc(NC(=O)Cn2nncc2CN2C(=O)CSC2=O)cc1C ?
98.8% (inactive)

Cn1nc(C(F)(F)F)cc1-c1c[nH]c(OCc2ccc(Cl)cc2)c(-c2ccc(Cl)c(C(F)(F)F)c2)c1=O ?
2.51% (active)

CC1(C)C(N(O)C(=O)Nc2ccc(Cl)cc2)N(c2ccc(Cl)cc2)C(=O)N1CC(=O)N/N=C/C=C/c1ccc([N+](=O)[O-])o1 (stereo unspecified) ?
-19.1% (active)

CC1=C(O)C(=O)C(c2c(C)cc(C)c(Br)c2C)=C(O)C1=O ?
73.1% (inactive)

C#CC[C@@H]1C[C@]2(C)[C@H]3CC=C4[C@H]5[C@@H](C)[C@H](C)CC[C@]5(C(=O)NCCCCCCCCN)CC[C@@]4(C)[C@]3(C)CC[C@H]2C(C)(C)[C@H]1OC(C)=O ?
93.7% (inactive)

c1ccc2c(c1)cnc1ccccc12 ?
106% (inactive)

CC(CN1CCN(CCOCCO)CC1)CN1c2ccccc2Sc2ccc(Cl)cc21 (stereo unspecified) ?
79.1% (inactive)

O=C(O)c1ccccc1N=Cc1ccccc1 ?
112% (inactive)

CCOc1cccc(/C=N/NC(=O)Cc2ccc(Nc3ccnc(C(F)(F)F)c3)cc2)c1O ?
40.7% (inactive)

COc1ccc(Sc2[nH]c(C=O)c3ccccc23)cc1 ?
-7.47% (active)

Oc1c(-c2cc(C(F)(F)F)[nH]n2)cc(Cl)c(OCc2ccc(Cl)cc2)c1-c1ccc(Cl)c(C(F)(F)F)c1 ?
-11.9% (active)

N#Cc1c(N)c(C(=O)c2ccc3c(c2)OCCO3)n2c1CCCC2 ?
52.9% (inactive)

COc1cc(/C=C/C(=O)c2ccc(NC(=O)CSc3nnc(-c4ccc(Cl)cc4)n3-c3ccccc3)cc2)cc(OC)c1OC ?
59.6% (inactive)

CCCCC(CCc1ccccn1)C(=O)c1ccccc1 (stereo unspecified) ?
108% (inactive)

Nc1nc(N)c2cc(Sc3ccc(Cl)cc3)ccc2n1 ?
54.7% (inactive)

###

System: KM12 colon
method_notes: NCI-60 one-dose screen, 48 h (100 = growth as untreated, 0 = no growth, -100 = all killed)
settings: 10 µM unless noted
Compounds without any hit were thinned out: in the full panel of roughly 83,000, 20% have a hit.
Checkbox rule: growth lower than 10% = Condition met; growth not lower than 10% = Condition not met.

Is it true that growth reported for O=C(/C=C/c1cn(-c2ccccc2)nc1-c1cccc(Nc2ccnc3cc(Cl)ccc23)c1)c1ccc2c(c1)OCO2 is less than 10%?
Condition not met

CCCCCCCCCCCCCCCCCC1=NC(C)(C)CN1C(C)(C)CO ?
Condition met

Cc1ccc(/C=C/C(=N/N=C(N)N)c2ccccc2)cc1 ?
Condition not met

CCOC(=O)c1ccc(N(CCC(=O)O)C(C)=O)cc1 ?
Condition not met

C/C(=N\NC(=S)N1CCCCC1)c1ccccn1 ?
Condition not met

COc1ccc(Nc2ncnc3c2sc2nc(C)cc(C)c23)cc1 ?
Condition not met

CCOC(=O)C(=CNc1ccccc1Cl)C(=O)OCC ?
Condition not met

CCCCCCCCCCCC1=NC(C)(C)CN1C(C)(C)CO ?
Condition met

O=C(O)c1ccccc1N=Cc1ccccc1 ?
Condition not met

COc1ccc([C@@H]2[C@@H](Cl)C(=O)N2c2cc(OC)c(OC)c(OC)c2)cc1C ?
Condition not met

COc1cc2nccc(Oc3ccc(NC(=O)C4(C(=O)Nc5ccc(F)cc5)CC4)cc3)c2cc1Oc1ccc(N)cn1 ?
Condition met

Nc1nc(N)c2cc(CNc3ccc(Cl)c(Cl)c3)ccc2n1 ?
Condition met

CSCCC1NC(=O)C(C(C)=Nc2ccccc2)=C1O (stereo unspecified) ?
Condition not met

COC1CC(N)C2OC(c3ccccc3)OCC2O1 (stereo unspecified) ?
Condition not met

COc1ccc(/C=C/C(=O)c2ccc(NC(=O)CSc3nnc(-c4ccc(Cl)cc4)n3-c3ccccc3)cc2)cc1 ?
Condition not met

O=C(O)C1[S][Sb]([CH](C(=O)O)[CH](C(=O)O)[Sb]2[S]C(C(=O)O)C(C(=O)O)[S]2)[S]C1C(=O)O (stereo unspecified) ?
Condition not met

COCCOCCOCc1n(Cc2ccc3ccccc3n2)c2ccccc2[n+]1Cc1ccc2ccccc2c1 ?
Condition met

Nc1nc2ccc([C@@H]3Nc4ccc5[nH]ncc5c4[C@H]4[C@H]5CCC(C5)[C@H]43)cc2s1 ?
Condition met

COc1ccc(C2=CC(c3ccc(OC)cc3Br)N3C=CSC3=N2)cc1 (stereo unspecified) ?
Condition not met

NCCCOc1cc2ccccc2cc1C(=O)NCCCOc1cc2ccccc2cc1C(=O)Nc1ccc(Cl)cc1O ?
Condition met

Nc1c(C(=O)c2ccc(Br)cc2)sc2nc3c(cc12)CCCC3 ?
Condition not met
